Reference source: patent US11173151B2

Biological target: human V1a receptor (Homo sapiens, UniProt P37288)
Sequence (P37288 whole entry): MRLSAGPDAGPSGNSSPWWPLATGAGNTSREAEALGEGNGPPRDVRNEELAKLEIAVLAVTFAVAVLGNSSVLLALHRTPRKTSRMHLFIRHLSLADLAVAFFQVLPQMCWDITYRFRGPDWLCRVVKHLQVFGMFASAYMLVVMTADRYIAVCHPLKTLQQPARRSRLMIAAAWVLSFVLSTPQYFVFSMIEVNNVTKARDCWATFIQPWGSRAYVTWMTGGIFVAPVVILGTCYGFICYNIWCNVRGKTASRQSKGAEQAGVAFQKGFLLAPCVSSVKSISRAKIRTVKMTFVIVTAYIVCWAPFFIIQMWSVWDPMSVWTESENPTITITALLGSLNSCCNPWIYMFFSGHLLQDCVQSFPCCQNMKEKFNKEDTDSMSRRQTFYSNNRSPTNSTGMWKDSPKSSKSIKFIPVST
Test: Cellular in vitro assay for determining vasopressin receptor activity, V1a receptor cell line (CHO, aequorin luminescence)
Conditions: CHO cell line transfected with human V1a receptor; [Arg]-vasopressin at EC50 concentration; read-out: IC50 hV1a
pIC50: −log10 of the molar value.
readout-name: pIC50

Worked examples follow.
Entry `CN(CC1CC1)C(=O)c1ncccc1-n1cnc(Cn2nc(-c3ccc(Cl)cc3)n(C[C@H](O)C(F)(F)F)c2=O)n1` has what pIC50? 7.92

Entry `CC1(C)CN(C(=O)c2ncccc2-n2cnc(Cn3nc(-c4ccc(Cl)cc4)n(C[C@@H](O)C(F)(F)F)c3=O)n2)CCO1` has what pIC50? 7.22

Entry `O=C1NCCN1CCNc1ccncc1-n1cnc(Cn2nc(-c3ccc(Cl)cc3)n(C[C@H](O)C(F)(F)F)c2=O)n1` has what pIC50? 6.23

Entry `O=C(NCc1ccccc1)c1ccccc1-n1cnc(Cn2nc(-c3ccc(Cl)cc3)n(C[C@H](O)C(F)(F)F)c2=O)n1` has what pIC50? 8.36

Entry CC1CCC(C)C1NC(=O)c1ccccc1-n1cnc(Cn2nc(-c3ccc(Cl)cc3)n(C[C@H](O)C(F)(F)F)c2=O)n1 (stereo partly shown) has what pIC50? 8.31

1. O=C1CCC(CNc2ccncc2-n2cnc(Cn3nc(-c4ccc(Cl)cc4)n(C[C@H](O)C(F)(F)F)c3=O)n2)N1 (mixture of isomers)
2. Cc1nccn1CC(=O)Nc1ncccc1-n1cnc(Cn2nc(-c3ccc(Cl)cc3)n(C[C@H](O)C(F)(F)F)c2=O)n1
// which entry has the larger pIC50 value, 1 or 2 ? # respond with the chosen item's label 2

---

Target: human V1a receptor (Homo sapiens, UniProt P37288)
Construct: expressed in transfected cells; host or cells: CHO K1 (ATCC), also stably transfected with a modified aequorin
Assay: Cellular in vitro assay for determining vasopressin receptor activity, V1a receptor cell line (CHO, aequorin luminescence)
Format: cell-based
Conditions: selectivity ratio IC50 hV2 / IC50 hV1a
readout-name: ratio IC50 hV2/hV1a

Worked examples follow.
Entry `Cc1ccc(F)c(NC(=O)c2ccccc2-n2cnc(Cn3nc(-c4ccc(Cl)cc4)n(C[C@H](O)C(F)(F)F)c3=O)n2)c1` has what ratio IC50 hV2/hV1a? 106.1

Entry `O=C(Nc1ccncc1-n1cnc(Cn2nc(-c3ccc(Cl)cc3)n(C[C@H](O)C(F)(F)F)c2=O)n1)C1(C(F)(F)F)CC1` has what ratio IC50 hV2/hV1a? 150.7

Entry `O=c1n(Cc2ncn(-c3cnccc3NCC(F)(F)F)n2)nc(-c2ccc(Cl)cc2)n1C[C@H](O)C(F)(F)F` has what ratio IC50 hV2/hV1a? 1.9

Entry `CCn1cc(C(=O)Nc2ncccc2-n2cnc(Cn3nc(-c4ccc(Cl)cc4)n(C[C@H](O)C(F)(F)F)c3=O)n2)cn1` has what ratio IC50 hV2/hV1a? 388.2

Entry `O=C(NCc1cccc(F)c1)c1ccccc1-n1cnc(Cn2nc(-c3ccc(Cl)cc3)n(C[C@H](O)C(F)(F)F)c2=O)n1` has what ratio IC50 hV2/hV1a? 48.2

1. CN1CCN(C(=O)c2ccccc2-n2cnc(Cn3nc(-c4ccc(Cl)cc4)n(C[C@H](O)C(F)(F)F)c3=O)n2)CC1=O
2. O=C(Nc1ccccc1O)c1ccccc1-n1cnc(Cn2nc(-c3ccc(Cl)cc3)n(C[C@H](O)C(F)(F)F)c2=O)n1
// returns 1 or 2 , whichever has the lower ratio IC50 hV2/hV1a # respond with the chosen item's label 2

1. CN(C(=O)c1ccccc1-n1cnc(Cn2nc(-c3ccc(Cl)cc3)n(C[C@H](O)C(F)(F)F)c2=O)n1)C1CCCC1
2. O=C(Nc1ncccc1-n1cnc(Cn2nc(-c3ccc(Cl)cc3)n(C[C@H](O)C(F)(F)F)c2=O)n1)c1ccncn1
// returns 1 or 2 , whichever has the lower ratio IC50 hV2/hV1a # respond with the chosen item's label 2
(2: 74.7, 1: 425.9)
